- System: Salmonella typhimurium TA1535
- assay-text: Cytotoxicity in liquid medium
- Type: cell-based
- assay-context: 100 μM, mean ± SEM
Marks after values point to notes of the source that are not given here.
reported-metric: Viability at fluoroarylbichalcophene concentrations (% of control)

- compound-string: "N#Cc1ccc(-c2ccc(-c3cccs3)s2)cc1F"
  experimental-value: "22.3±2.2 ^a % of control"
- compound-string: "N#Cc1ccc(-c2ccc(-c3cccs3)o2)cc1F"
  experimental-value: "3.0±0.2 ^a % of control"
- compound-string: "N#Cc1ccc(-c2ccc(-c3ccco3)o2)cc1F"
  experimental-value: "29.0±3.1 ^a % of control"
- compound-string: "N#Cc1ccc(-c2ccc(-c3cccs3)o2)c(F)c1"
  experimental-value: "2.7±0.4 ^a % of control"
- compound-string: "Cl.N=C(N)c1ccc(-c2ccc(-c3ccco3)o2)c(F)c1"
  experimental-value: "32.7±2.7 ^a % of control"
- compound-string: "Cl.N=C(N)c1ccc(-c2ccc(-c3ccco3)o2)cc1F"
  experimental-value: "36.7±2.8 ^a % of control"
- compound-string: "N#Cc1ccc(-c2ccc(-c3ccco3)o2)c(F)c1"
  experimental-value: "45.7±3.5 ^a % of control"
- compound-string: "Cl.N=C(N)c1ccc(-c2ccc(-c3cccs3)o2)cc1F"
  experimental-value: "49.3±3.8 ^a % of control"
- compound-string: "Cl.N=C(N)c1ccc(-c2ccc(-c3cccs3)o2)c(F)c1"
  experimental-value: "28.7±3.0 ^a % of control"

###

Measured Viability at fluoroarylbichalcophene concentrations (% of control) of individual entries
- Tested on: Salmonella typhimurium TA1535
- assay-text: Cytotoxicity in liquid medium
- Assay type: cell-based
- assay-context: 25 μM, mean ± SEM
reported-metric: Viability at fluoroarylbichalcophene concentrations (% of control)

- compound-string: "N#Cc1ccc(-c2ccc(-c3ccco3)o2)c(F)c1"
  experimental-value: "100.0±8.5 % of control"
- compound-string: "N#Cc1ccc(-c2ccc(-c3cccs3)o2)c(F)c1"
  experimental-value: "104.7±11.6 % of control"
- compound-string: "Cl.N=C(N)c1ccc(-c2ccc(-c3ccco3)o2)cc1F"
  experimental-value: "101.7±11.3 % of control"
- compound-string: "Cl.N=C(N)c1ccc(-c2ccc(-c3cccs3)o2)c(F)c1"
  experimental-value: "71.3±6.4 % of control"

###

- Tested on: Salmonella typhimurium TA1535
- assay-text: Cytotoxicity in liquid medium
- Format: cell-based
- assay-context: 50 μM, mean ± SEM
Marks after values point to notes of the source that are not given here.
reported-metric: Viability at fluoroarylbichalcophene concentrations (% of control)

- compound-string: "Cl.N=C(N)c1ccc(-c2ccc(-c3cccs3)o2)cc1F"
  experimental-value: "65.3±3.9 ^a % of control"
- compound-string: "N#Cc1ccc(-c2ccc(-c3ccco3)o2)cc1F"
  experimental-value: "64.7±6.6 ^a % of control"
- compound-string: "Cl.N=C(N)c1ccc(-c2ccc(-c3cccs3)o2)c(F)c1"
  experimental-value: "58.7±4.2 ^a % of control"
- compound-string: "Cl.N=C(N)c1ccc(-c2ccc(-c3ccco3)o2)c(F)c1"
  experimental-value: "63.3±9.0 ^a % of control"
- compound-string: "N#Cc1ccc(-c2ccc(-c3cccs3)o2)c(F)c1"
  experimental-value: "61.0±7.0 ^a % of control"

###

- Tested on: Salmonella typhimurium TA1535
- assay-text: Antimutagenicity assay against sodium azide
- Format: cell-based
- assay-context: pre-exposure; 20 μM; mutant colonies/viable colonies

- compound-string: "Cl.N=C(N)c1ccc(-c2ccc(-c3cccs3)o2)cc1F"
  Mutant frequency (sodium azide): 0.88
- compound-string: "N#Cc1ccc(-c2ccc(-c3ccco3)o2)c(F)c1"
  Mutant frequency (sodium azide): 0.52
- compound-string: "Cl.N=C(N)c1ccc(-c2ccc(-c3ccco3)o2)cc1F"
  Mutant frequency (sodium azide): 0.79
- compound-string: "Cl.N=C(N)c1ccc(-c2ccc(-c3ccco3)o2)c(F)c1"
  Mutant frequency (sodium azide): 0.44
- compound-string: "N#Cc1ccc(-c2ccc(-c3cccs3)o2)cc1F"
  Mutant frequency (sodium azide): 0.56
- compound-string: "Cl.N=C(N)c1ccc(-c2ccc(-c3cccs3)o2)c(F)c1"
  Mutant frequency (sodium azide): 0.65
- compound-string: "N#Cc1ccc(-c2ccc(-c3cccs3)s2)cc1F"
  Mutant frequency (sodium azide): 0.42
- compound-string: "N#Cc1ccc(-c2ccc(-c3ccco3)o2)cc1F"
  Mutant frequency (sodium azide): 0.95

###

- System: Salmonella typhimurium TA1535
- assay-text: Antimutagenicity assay against sodium azide
- Type: cell-based
- assay-context: co-exposure; 10 μM; NaN3 2 μg/plate; spontaneous 29.3±5.3
reported-metric: NaN3 mutagenicity (revertant colonies/plate; mean ± SEM) (revertant colonies/plate)

- compound: "N#Cc1ccc(-c2ccc(-c3cccs3)o2)cc1F [Compound 4d]"
  experimental-value: 47.7
- compound: "N#Cc1ccc(-c2ccc(-c3cccs3)s2)cc1F [Compound 4e]"
  experimental-value: 36.7
- compound: "N#Cc1ccc(-c2ccc(-c3ccco3)o2)cc1F [Compound 4b]"
  experimental-value: 35.3
- compound: "Cl.N=C(N)c1ccc(-c2ccc(-c3cccs3)o2)cc1F [Compound 5d]"
  experimental-value: 43.3
- compound: "Cl.N=C(N)c1ccc(-c2ccc(-c3cccs3)o2)c(F)c1 [Compound 5c]"
  experimental-value: 25.7
- compound: "N#Cc1ccc(-c2ccc(-c3ccco3)o2)c(F)c1 [Compound 4a]"
  experimental-value: 75.0
- compound: "Cl.N=C(N)c1ccc(-c2ccc(-c3ccco3)o2)cc1F [Compound 5b]"
  experimental-value: 26.0
- compound: "Cl.N=C(N)c1ccc(-c2ccc(-c3ccco3)o2)c(F)c1 [Compound 5a]"
  experimental-value: 73.3
- compound: "N#Cc1ccc(-c2ccc(-c3cccs3)o2)c(F)c1 [Compound 4c]"
  experimental-value: 44.7

###

- System: Salmonella typhimurium TA1535
- assay-text: Cytotoxicity in liquid medium
- Assay type: cell-based
- assay-context: 25 μM, mean ± SEM
# Viability at fluoroarylbichalcophene concentrations (% of control) values compiled below
reported-metric: Viability at fluoroarylbichalcophene concentrations (% of control)

- molecule: "Cl.N=C(N)c1ccc(-c2ccc(-c3cccs3)o2)cc1F [Compound 5d]"
  system: "Salmonella typhimurium TA1535"
  experimental-value: "105.7±4.6 % of control"
- molecule: "N#Cc1ccc(-c2ccc(-c3cccs3)s2)cc1F [Compound 4e]"
  system: "Salmonella typhimurium TA1535"
  experimental-value: "104.0±9.9 % of control"
- molecule: "N#Cc1ccc(-c2ccc(-c3cccs3)o2)cc1F [Compound 4d]"
  system: "Salmonella typhimurium TA1535"
  experimental-value: "71.7±5.0 % of control"
- molecule: "N#Cc1ccc(-c2ccc(-c3ccco3)o2)cc1F [Compound 4b]"
  system: "Salmonella typhimurium TA1535"
  experimental-value: "88.3±7.4 % of control"
- molecule: "Cl.N=C(N)c1ccc(-c2ccc(-c3ccco3)o2)c(F)c1 [Compound 5a]"
  system: "Salmonella typhimurium TA1535"
  experimental-value: "102.3±10.2 % of control"

###

- Test system: Salmonella typhimurium TA1535
- assay-text: Cytotoxicity in liquid medium
- Format: cell-based
- assay-context: 50 μM, mean ± SEM
Marks after values point to notes of the source that are not given here.
reported-metric: Viability at fluoroarylbichalcophene concentrations (% of control)

- compound: "N#Cc1ccc(-c2ccc(-c3cccs3)s2)cc1F [Compound 4e]"
  system: "Salmonella typhimurium TA1535"
  experimental-value: "64.7±8.1 ^a % of control"
- compound: "N#Cc1ccc(-c2ccc(-c3cccs3)o2)cc1F [Compound 4d]"
  system: "Salmonella typhimurium TA1535"
  experimental-value: "59.7±4.7 ^a % of control"
- compound: "Cl.N=C(N)c1ccc(-c2ccc(-c3ccco3)o2)cc1F [Compound 5b]"
  system: "Salmonella typhimurium TA1535"
  experimental-value: "62.0±5.5 ^a % of control"
- compound: "N#Cc1ccc(-c2ccc(-c3ccco3)o2)c(F)c1 [Compound 4a]"
  system: "Salmonella typhimurium TA1535"
  experimental-value: "66.3±5.6 ^a % of control"

###

- Tested on: Salmonella typhimurium TA1535
- assay-text: Ames Salmonella/microsomal mutagenicity assay
- Assay type: cell-based
- assay-context: 10 μM; presence of S9 mix; spontaneous 67.0±6.1
reported-metric: Fluoroarylbichalcophene mutagenicity (revertant colonies/plate; mean ± SEM) (revertant colonies/plate)

- molecule: "Cl.N=C(N)c1ccc(-c2ccc(-c3cccs3)o2)cc1F [Compound 5d]"
  system: "Salmonella typhimurium TA1535"
  experimental-value: 65.0
- molecule: "N#Cc1ccc(-c2ccc(-c3cccs3)s2)cc1F [Compound 4e]"
  system: "Salmonella typhimurium TA1535"
  experimental-value: 65.3
- molecule: "Cl.N=C(N)c1ccc(-c2ccc(-c3ccco3)o2)c(F)c1 [Compound 5a]"
  system: "Salmonella typhimurium TA1535"
  experimental-value: 61.0
- molecule: "Cl.N=C(N)c1ccc(-c2ccc(-c3ccco3)o2)cc1F [Compound 5b]"
  system: "Salmonella typhimurium TA1535"
  experimental-value: 68.7
- molecule: "N#Cc1ccc(-c2ccc(-c3cccs3)o2)c(F)c1 [Compound 4c]"
  system: "Salmonella typhimurium TA1535"
  experimental-value: 65.3
- molecule: "N#Cc1ccc(-c2ccc(-c3ccco3)o2)c(F)c1 [Compound 4a]"
  system: "Salmonella typhimurium TA1535"
  experimental-value: 63.3
- molecule: "N#Cc1ccc(-c2ccc(-c3cccs3)o2)cc1F [Compound 4d]"
  system: "Salmonella typhimurium TA1535"
  experimental-value: 68.7
- molecule: "N#Cc1ccc(-c2ccc(-c3ccco3)o2)cc1F [Compound 4b]"
  system: "Salmonella typhimurium TA1535"
  experimental-value: 64.3
- molecule: "Cl.N=C(N)c1ccc(-c2ccc(-c3cccs3)o2)c(F)c1 [Compound 5c]"
  system: "Salmonella typhimurium TA1535"
  experimental-value: 70.0

Data provenance: paper PMC4109633
